system: human CETP mRNA; assay: Antisense inhibition of human CETP mRNA in primary hepatocytes from huCETP transgenic mice (Example 4); assay type: cell-based, mouse; conditions: 200 nM, cytofectin, ~24 hours
Strand notation (5' to 3'): a small letter for the sugar, then the base; units joined by * are phosphorothioate-linked, units joined directly phosphodiester-linked; [ ] holds rarer units or linkages, { } end groups; capitals alone tell only the bases. e = 2'-O-(2-methoxyethyl) (MOE); [5mC] = 5-methylcytosine; d = 2'-deoxy (DNA)
Percent inhibition of human CETP mRNA listing for selected substances.
Number in %, nothing else.

Percent inhibition of human CETP mRNA in this record for ISIS 349459: 5-10-5 MOE gapmer CTTCTCGCCCGTGATATCTG (e[5mC]*eT*eT*e[5mC]*eT*d[5mC]*dG*d[5mC]*d[5mC]*d[5mC]*dG*dT*dG*dA*dT*eA*eT*e[5mC]*eT*eG) : 63

Percent inhibition of human CETP mRNA in this record for ISIS 349447: 5-10-5 MOE gapmer TATGTATGTCCGCCCAGCCC (eT*eA*eT*eG*eT*dA*dT*dG*dT*d[5mC]*d[5mC]*dG*d[5mC]*d[5mC]*d[5mC]*eA*eG*e[5mC]*e[5mC]*e[5mC]) : 28

Percent inhibition of human CETP mRNA in this record for ISIS 349454: 5-10-5 MOE gapmer GTGCCTTTGGAGCAGGCATG (eG*eT*eG*e[5mC]*e[5mC]*dT*dT*dT*dG*dG*dA*dG*d[5mC]*dA*dG*eG*e[5mC]*eA*eT*eG) : 68

Percent inhibition of human CETP mRNA in this record for ISIS 349451: 5-10-5 MOE gapmer GCAGCCAGCATGGTTATCAG (eG*e[5mC]*eA*eG*e[5mC]*d[5mC]*dA*dG*d[5mC]*dA*dT*dG*dG*dT*dT*eA*eT*e[5mC]*eA*eG) : 54

Percent inhibition of human CETP mRNA in this record for ISIS 349495: 5-10-5 MOE gapmer AGGAATTTCACCATCACTGA (eA*eG*eG*eA*eA*dT*dT*dT*d[5mC]*dA*d[5mC]*d[5mC]*dA*dT*d[5mC]*eA*e[5mC]*eT*eG*eA) : 74

Percent inhibition of human CETP mRNA in this record for ISIS 349473: 5-10-5 MOE gapmer AGCAGCTTATGGAAAGACAG (eA*eG*e[5mC]*eA*eG*d[5mC]*dT*dT*dA*dT*dG*dG*dA*dA*dA*eG*eA*e[5mC]*eA*eG) : 61

Percent inhibition of human CETP mRNA in this record for ISIS 349490: 5-10-5 MOE gapmer CCTCTTGGAAGATTTCCTGG (e[5mC]*e[5mC]*eT*e[5mC]*eT*dT*dG*dG*dA*dA*dG*dA*dT*dT*dT*e[5mC]*e[5mC]*eT*eG*eG) : 80

Percent inhibition of human CETP mRNA in this record for ISIS 349484: 5-10-5 MOE gapmer ACCAGAAGTACAGCATGCGG (eA*e[5mC]*e[5mC]*eA*eG*dA*dA*dG*dT*dA*d[5mC]*dA*dG*d[5mC]*dA*eT*eG*e[5mC]*eG*eG) : 52

Percent inhibition of human CETP mRNA in this record for ISIS 349472: 5-10-5 MOE gapmer GCACTCTACCAGAGTCACAG (eG*e[5mC]*eA*e[5mC]*eT*d[5mC]*dT*dA*d[5mC]*d[5mC]*dA*dG*dA*dG*dT*e[5mC]*eA*e[5mC]*eA*eG) : 45

Measured values drawn from patent US20130053430A1 for this set.
